test system: HCC-2998 colon; assay: NCI tumour cell line growth inhibition, 48 h
Assign TGI to each entry below.
Kindly provide the numeric value in µM only, without the unit symbol.

Q. Fill: TGI (HCC-2998 colon) for this compound CSc1nc(=Nc2ccccc2)sn1-c1ccccc1
A. 38.1

Q. Fill: TGI (HCC-2998 colon) for this compound COc1ccc(Cc2nc3cc([N+](=O)[O-])ccc3n2C[C@@H]2CCCN3CCCCC23)cc1 (stereo not given in full)
A. 34.1

Q. Fill: TGI (HCC-2998 colon) for this compound CCNC(=S)NNC(=O)c1csc(NC(=S)NC2CCCCC2)n1
A. 23.8

Q. Fill: TGI (HCC-2998 colon) for this compound CC(=O)NC1=C(C)C(=O)c2c(nc3n2CCC3OC(=O)c2ccccc2)C1=O (stereo not given)
A. 12.1

---

tested on: SK-MEL-2 melanoma; experiment: NCI tumour cell line growth inhibition, 48 h
Assign TGI to each entry below.

Q. Fill: TGI (SK-MEL-2 melanoma) for this molecule Clc1ccc(C2=NOC(C3CCCCC3)C2)cc1 (stereo not drawn)
A. > 100 µM

Q. Fill: TGI (SK-MEL-2 melanoma) for this molecule Nc1ccc2c(c1)Cc1ccccc1-2
A. > 100 µM

Q. Fill: TGI (SK-MEL-2 melanoma) for this molecule CCOc1ccc(NC(=O)/C(=N\N)C(C(=O)OC)c2nc3ccc(Cl)cc3[nH]c2=O)cc1 (stereo not drawn)
A. > 100 µM

---

system: A549 NSCLC; assay: NCI tumour cell line growth inhibition, 48 h
measuredMetric: TGI

Q. Fill: TGI (A549 NSCLC) for this molecule Cn1cc(C2=C(c3c4n(c5ccccc35)CCN(C(N)=S)C4)C(=O)NC2=O)c2ccccc21
A. > 25 µM

Q. Fill: TGI (A549 NSCLC) for this molecule C[C@]12CC[C@H](OC3OC(O)C(O)C(O)C3O)C=C1CCC1C2CC[C@]2(C)[C@@H](c3ccc(=O)oc3)CC[C@]12O (some centres undefined)
A. 0.00358 µM

Q. Fill: TGI (A549 NSCLC) for this molecule O=C(c1ccccc1)c1nc2ccc(Cl)cc2c2c1Cc1ccccc1-2
A. > 100 µM

Q. Fill: TGI (A549 NSCLC) for this molecule C=CCOC(C)n1c(C)c(Br)c(=O)[nH]c1=O (centres undefined)
A. > 100 µM

---

test system: SR leukemia; assay: NCI tumour cell line growth inhibition, 48 h
measuredMetric: TGI

Q. Note TGI for the compound shown: O=C(/C=C/c1cccc([N+](=O)[O-])c1)c1cccnc1
A. 62.5 µM

Q. Note TGI for the compound shown: CC(C)(C)N/N=C(\C(=O)Nc1ccc([N+](=O)[O-])cc1[N+](=O)[O-])c1nc2ccc([N+](=O)[O-])cc2[nH]c1=O
A. > 100 µM

Q. Note TGI for the compound shown: COc1cc(C(C)c2ccc3c(ccn3C)c2)cc(OC)c1OC (stereo not drawn)
A. > 100 µM

Q. Note TGI for the compound shown: C=CCCC1CCCCC/C1=N\N(C)C (stereo not drawn)
A. > 100 µM

Q. Note TGI for the compound shown: CCOC(=O)c1c(-c2ccccc2)oc(=O)c(Cc2cccc3cccnc23)c1-c1ccccc1
A. > 10 µM

Q. Note TGI for the compound shown: CN(C)CCCNC(=O)N/N=C\c1cccc2ccccc12
A. > 10 µM

Q. Note TGI for the compound shown: COc1ccc(-c2c(C#N)c(N)nc3c2COc2ccc(F)cc2-3)cc1OC
A. > 100 µM

Q. Note TGI for the compound shown: O=C1OC(c2ccccc2)=N/C1=C\c1ccc(F)cc1
A. > 100 µM

Q. Note TGI for the compound shown: COC(=S)OC1CC(n2cnc3c(=O)[nH]cnc32)OC1CO[Si](C)(C)C(C)(C)C (stereo not drawn)
A. > 100 µM

Q. Note TGI for the compound shown: Cc1nc2ccccc2c(=O)n1NC(=S)Nc1ccccc1
A. > 100 µM

Q. Note TGI for the compound shown: C=CCOC(C)n1c(C)c(Br)c(=O)[nH]c1=O (stereo not drawn)
A. > 100 µM

Q. Note TGI for the compound shown: COc1cccc(CC(C)N)c1 (stereo not drawn)
A. > 100 µM

Q. Note TGI for the compound shown: Oc1ccc(CCl)c2cccnc12
A. 53.6 µM

Q. Note TGI for the compound shown: Cc1ccc(C)c(COc2cc(NC(=O)c3ccc4c(c3)OCO4)ccc2N(C)S(C)(=O)=O)c1
A. > 100 µM

Q. Note TGI for the compound shown: O=c1[nH]nc(Cc2ccccc2)n1O
A. > 100 µM

Q. Note TGI for the compound shown: CCC1([N+](=O)[O-])CC2C=CC1C2 (stereo not drawn)
A. > 100 µM

Q. Note TGI for the compound shown: CC(=O)Nc1ccc2c(C3=C(c4cn(C)c5ccccc45)C(=O)NC3=O)cn(C)c2c1
A. > 25 µM

Q. Note TGI for the compound shown: N#Cc1ccc(Sc2ccccc2)cc1C#N
A. 39.9 µM

Q. Note TGI for the compound shown: Oc1c(Cl)cc(Cl)c2ccc(Cn3cc(-c4cc(F)cc(F)c4)nn3)nc12
A. > 100 µM

Q. Note TGI for the compound shown: CSc1nc(=Nc2ccccc2)sn1-c1ccccc1
A. 81.1 µM

Q. Note TGI for the compound shown: Cc1cc(I)cc(CN(C)CCN2CCOCC2)c1O
A. 97.7 µM

Q. Note TGI for the compound shown: CCOC(=O)/C=C(/OCC)[C@@H]1C(C(=O)c2ccc(Cl)cc2)[C@H]1/C(=C\C(=O)OCC)OCC (stereo partly drawn)
A. > 23.6 µM

Q. Note TGI for the compound shown: O=c1c2ccccc2n2c(=S)[nH]nc2n1-c1ccccc1
A. > 100 µM

---

Assign TGI to each entry below.
system: SNB-78 CNS; experiment: NCI tumour cell line growth inhibition, 48 h

Q. Fill: TGI (SNB-78 CNS) for this molecule COc1ccccc1-n1c(C)nc2ccccc2c1=O
A. > 100 µM

Q. Fill: TGI (SNB-78 CNS) for this molecule O=C(NC1C2CC3CC(C2)CC1C3)c1ccncn1 (stereo not given)
A. > 100 µM

Q. Fill: TGI (SNB-78 CNS) for this molecule COc1cc2c(cc1OC)[Se]c1cc(OC)c(OC)cc1[Se]2
A. > 100 µM

Q. Fill: TGI (SNB-78 CNS) for this molecule C=CCN1C2Cc3cc(OC)c(OC)cc3C1Cc1cc(OC)c(OC)cc12
A. > 100 µM

Q. Fill: TGI (SNB-78 CNS) for this molecule C/C(CC(=O)Nc1ccc(C)c(C)c1)=N\NC(N)=S
A. > 100 µM

Q. Fill: TGI (SNB-78 CNS) for this molecule N#C/C(=C\c1c(Cl)cccc1Cl)c1ccccc1
A. > 66.8 µM

Q. Fill: TGI (SNB-78 CNS) for this molecule CC1=Nn2c(nnc2-c2ccc(Cl)cc2)NC(C)(C)C1
A. > 100 µM

Q. Fill: TGI (SNB-78 CNS) for this molecule FC(F)(F)c1cccc2ns[s+]c12
A. > 100 µM

Q. Fill: TGI (SNB-78 CNS) for this molecule CSc1nc(=Nc2ccccc2)sn1-c1ccccc1
A. 47 µM

Q. Fill: TGI (SNB-78 CNS) for this molecule N.N.NCCCCCCN.O=C([O-])CCl.O=C([O-])CCl.O=C([O-])CCl.O=C([O-])CCl.[Pt+4].[Pt+4]
A. > 50 µM

---

system: MDA-MB-231 breast; assay: NCI tumour cell line growth inhibition, 48 h; in the data active means GI50 below about 0.43 µM; inactive means the rest
*1 amine or outer side, *2 acyl side, *3 side chain or, on linkers, in order; H or OH if unused. Where a SMILES comes first, the peptide text is derived from it. Bridges are numbered along the chain shown (N, C = ends). [ ]: non-standard residue; d: D form. The star is where a group is joined. Phe(3,5-F2) = N[C@@H](Cc1cc(F)cc(F)c1)C(=O)O; Pro(4R-Me) = C[C@H]1CN[C@H](C(=O)O)C1; aThr = C[C@H](O)[C@H](N)C(=O)O; Pip = O=C(O)[C@@H]1CCCCN1; X10 = Fc1cc(C2CC2)ccc1N*; Abu = CC[C@H](N)C(=O)O; CO = O=C([*:1])[*:2]
One label from this list, please: 1.0 = active, 0.0 = inactive

Q. Give the logged outcome of this assay for the following compound: CC[C@@H]1NC(=O)[C@@H]2CCCCN2C(=O)[C@@H]2CCCN2C(=O)[C@@H](NC(=O)[C@H](Cc2cc(F)cc(F)c2)NC(=O)Nc2ccc(C3CC3)cc2F)[C@H](C)OC(=O)[C@@H]2C[C@@H](C)CN2C1=O ({X10-CO}-[Phe(3,5-F2)][aThr]P[Pip][Abu][Pro(4R-Me)]; ester 2-C)
A. 1.0

Q. Give the logged outcome of this assay for the following compound: CCn1cc(C(=O)N/N=C/c2ccc(Br)cc2)c(=O)c2cc(F)c(N3CCNC(C)C3)c(F)c21 (stereo not drawn)
A. 0.0

Q. Give the logged outcome of this assay for the following compound: COc1cc(OC)cc(C2C(C#N)=C(N)Oc3c2ccc2ccc(O)cc32)c1 (stereo not drawn)
A. 1.0
